// provenance: paper PMC9736855

# tested target: GSK3B (Homo sapiens, UniProt P49841)
# Sequence (P49841 35-386): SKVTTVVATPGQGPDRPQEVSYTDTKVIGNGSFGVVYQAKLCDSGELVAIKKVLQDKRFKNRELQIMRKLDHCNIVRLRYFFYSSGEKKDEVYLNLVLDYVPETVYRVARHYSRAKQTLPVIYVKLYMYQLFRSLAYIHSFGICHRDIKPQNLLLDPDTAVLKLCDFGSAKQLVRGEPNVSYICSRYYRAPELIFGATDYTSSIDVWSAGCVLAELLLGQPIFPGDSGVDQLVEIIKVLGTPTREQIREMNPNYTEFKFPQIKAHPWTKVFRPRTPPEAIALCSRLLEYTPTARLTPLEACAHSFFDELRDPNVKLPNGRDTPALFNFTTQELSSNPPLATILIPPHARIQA
# method: DSF
# Assay type: binding
# Set-up: purchased in-house DSF panel (SGC Frankfurt)
# assay conditions: 10 μM compound
Assign true (1) whenever ΔTm at 10 µM does not fall below 6 °C; assign false (0) whenever it does.

- compound: "CNC(=O)c1cc(Nc2ccnc(NCCCCCNC(=O)OC(C)(C)C)n2)[nH]n1 [41b]"
  class assignment: "false (0)"

ΔTm at 10 µM >= 6 °C for CC(C)(C)c1cc(Nc2ccnc(Nc3ccc(CC#N)cc3)n2)[nH]n1 [40c] ? true (1)

Here is the next compound: Cc1cc(Nc2ccnc(NCCCCCNC(=O)OC(C)(C)C)n2)[nH]n1 [38b] false (0)
